Test system: BEL-7404 tumor cell line
Experiment: Induction of apoptosis in human BEL-7404 tumor cell line in presence of EGCG at 30.5 uM
Format: functional, cell-based
property measured: IC50 (µM)
One number for each entry, in µM.

Record COc1cccc2c1C(=O)c1c(O)c3c(c(O)c1C2=O)C[C@@](O)(C(=O)CO)C[C@@H]3O[C@H]1C[C@H](N)[C@H](O)[C@H](C)O1 : what is its IC50 with BEL-7404 tumor cell line?
3.28

----------
Test system: ADR5000 cell line
Assay: Antiproliferative activity against human CEM/ADR5000 cells assessed as reduction in cell viability incubated for 48 hrs by MTT assay
Type: functional, cell-based
Details: ADR5000, 48 h
property measured: IC50
Answer with the figure and its unit, nothing else.

Entry COc1cccc2c1C(=O)c1c(O)c3c(c(O)c1C2=O)C[C@@](O)(C(=O)CO)C[C@@H]3O[C@H]1C[C@H](N)[C@H](O)[C@H](C)O1 has what IC50?
88.9 µM

----------
System: DLD-1
Assay: Antiproliferative activity against human DLD-1 cells assessed as reduction in cell growth incubated for 24 hrs by MTT assay
Type: functional, cell-based
Conditions: DLD-1, 24 h
property measured: pIC50
One number for each entry, as −log10 of the molar value.

What does the data say about its pIC50? Entry: O=c1[nH]cc(F)c(=O)[nH]1
3.82
